- System: SNB-19 CNS
- Assay Summary: NCI tumour cell line growth inhibition, 48 h
Observation Type: TGI

Solved cases below.
C[C@H](Nc1ncnc2ccc(-c3cnc(Cl)c(NS(C)(=O)=O)c3)cc12)c1ccccc1	9.94 µM
CNC(=O)c1cc(-n2ccc3cc(NC(=O)Nc4ccc(N5CCN(C)CC5)c(C(F)(F)F)c4)ccc32)ccn1	7.23 µM

Inquiry: Which TGI value belongs to `C/C(=C(/c1ccc(O)cc1)c1ccc(OCCN2CCCCCC2)cc1)c1ccccc1` ?
Reply text: > 100 µM

Inquiry: Recorded TGI of `O=C1Nc2cc(Cl)ccc2/C1=C\c1ccc(OCc2ccc(Br)cc2F)cc1` , please.
Reply text: 4.29 µM

###

The entries below come with measured TGI values attached.
- Test system: CCRF-CEM leukemia
- Assay Summary: NCI tumour cell line growth inhibition, 48 h
Supply the numeric figure in µM, leaving out any unit text.

O=C1Nc2cc(Cl)ccc2/C1=C\c1ccc(OCc2ccc(Br)cc2F)cc1	22

// next item, TGI requested
Inquiry: API: value(readout= TGI, system= CCRF-CEM leukemia, query= `CNC(=O)c1cc(-n2ccc3cc(NC(=O)Nc4ccc(N5CCN(C)CC5)c(C(F)(F)F)c4)ccc32)ccn1` )
Reply text: 16

src = PubChem BioAssay (NCI)
